The reader will find reported pest or weed control at 100 ppm values listed item by item below.
system: Musca domestica; test: Pesticidal test against Musca domestica (petri dish dry film); format: in vivo; settings: 24 h, concentration 100 ppm, female adults, examined after 1 day, 25° C., read-out: pesticidal rate

[
  {
    "compound": "CN(C(=O)c1c(F)cccc1F)c1cccc(C(=O)Nc2c(I)cc(C(F)(C(F)(F)F)C(F)(F)F)cc2I)c1F [7-1282]",
    "pest or weed control at 100 ppm": "≥ 70%"
  },
  {
    "compound": "O=C(Nc1cccc(C(=O)Nc2c(I)cc(C(F)(C(F)(F)F)C(F)(F)F)cc2C(F)(F)F)c1F)c1ccc(F)cc1 [6-1733]",
    "pest or weed control at 100 ppm": "≥ 70%"
  },
  {
    "compound": "O=C(Nc1cccc(C(=O)Nc2c(Br)cc(C(F)(C(F)(F)F)C(F)(F)F)cc2C(F)(F)F)c1F)c1cccc(F)c1 [6-1576]",
    "pest or weed control at 100 ppm": "≥ 70%"
  },
  {
    "compound": "CN(C(=O)c1ccccc1)c1cccc(C(=O)Nc2c(Br)cc(C(F)(C(F)(F)F)C(F)(F)C(F)(F)F)cc2C(F)(F)F)c1F (stereo not drawn) [7-1652]",
    "pest or weed control at 100 ppm": "≥ 70%"
  },
  {
    "compound": "CN(C(=O)c1c(F)cccc1F)c1cccc(C(=O)Nc2c(Br)cc(C(F)(C(F)(F)F)C(F)(F)F)cc2C(F)(F)F)c1F [7-1596]",
    "pest or weed control at 100 ppm": "≥ 70%"
  },
  {
    "compound": "CN(C(=O)c1ccc(Cl)nc1)c1cccc(C(=O)Nc2c(Br)cc(C(F)(C(F)(F)F)C(F)(F)C(F)(F)F)cc2C(F)(F)F)c1 (stereo not drawn) [7-389]",
    "pest or weed control at 100 ppm": "≥ 70%"
  },
  {
    "compound": "O=C(Nc1cccc(C(=O)Nc2c(I)cc(C(F)(C(F)(F)F)C(F)(F)C(F)(F)F)cc2C(F)(F)F)c1F)c1cccc(F)c1 (stereo not drawn) [6-1810]",
    "pest or weed control at 100 ppm": "≥ 70%"
  },
  {
    "compound": "O=C(Nc1cccc(C(=O)Nc2c(Br)cc(C(F)(C(F)(F)F)C(F)(F)F)cc2C(F)(F)F)c1F)OCC(Cl)(Cl)Cl [11-777]",
    "pest or weed control at 100 ppm": "≥ 70%"
  },
  {
    "compound": "CN(C(=O)c1ccccc1F)c1cccc(C(=O)Nc2c(I)cc(C(F)(C(F)(F)F)C(F)(F)F)cc2C(F)(F)F)c1F [7-1731]",
    "pest or weed control at 100 ppm": "≥ 70%"
  },
  {
    "compound": "O=C(Nc1cccc(C(=O)Nc2c(Br)cc(C(F)(C(F)(F)F)C(F)(F)F)cc2Br)c1F)c1ccc(F)cc1 [6-1107]",
    "pest or weed control at 100 ppm": "≥ 70%"
  },
  {
    "compound": "O=C(Nc1cccc(C(=O)Nc2c(Br)cc(C(F)(C(F)(F)F)C(F)(F)C(F)(F)F)cc2Br)c1F)c1cccnc1Cl (stereo not drawn) [6-1218]",
    "pest or weed control at 100 ppm": "≥ 70%"
  },
  {
    "compound": "O=C(Nc1cccc(C(=O)Nc2c(C(F)(F)F)cc(C(F)(C(F)(F)F)C(F)(F)F)cc2C(F)(F)F)c1F)c1ccccc1 [6-2110]",
    "pest or weed control at 100 ppm": "≥ 70%"
  },
  {
    "compound": "CN(C(=O)c1cccc(C#N)c1)c1cccc(C(=O)Nc2c(I)cc(C(F)(C(F)(F)F)C(F)(F)F)cc2C(F)(F)F)c1 [7-444]",
    "pest or weed control at 100 ppm": "≥ 70%"
  },
  {
    "compound": "CN(C(=O)c1ccccc1F)c1cccc(C(=O)Nc2c(I)cc(C(F)(C(F)(F)F)C(F)(F)C(F)(F)F)cc2C(F)(F)F)c1F (stereo not drawn) [7-1809]",
    "pest or weed control at 100 ppm": "≥ 70%"
  },
  {
    "compound": "N#Cc1ccc(C(=O)Nc2cccc(C(=O)Nc3c(I)cc(C(F)(C(F)(F)F)C(F)(F)C(F)(F)F)cc3C(F)(F)F)c2)cc1 (stereo not drawn) [6-523]",
    "pest or weed control at 100 ppm": "≥ 70%"
  },
  {
    "compound": "CN(C(=O)c1ccc(C#N)cc1)c1cccc(C(=O)Nc2c(Br)cc(C(F)(C(F)(F)F)C(F)(F)C(F)(F)F)cc2C(F)(F)F)c1 (stereo not drawn) [7-367]",
    "pest or weed control at 100 ppm": "≥ 70%"
  },
  {
    "compound": "O=C(Nc1cccc(C(=O)Nc2c(I)cc(C(F)(C(F)(F)F)C(F)(F)F)cc2I)c1F)c1ccccc1 [6-1260]",
    "pest or weed control at 100 ppm": "≥ 70%"
  },
  {
    "compound": "O=C(Nc1cccc(C(=O)Nc2c(Br)cc(C(F)(C(F)(F)F)C(F)(F)C(F)(F)F)cc2C(F)(F)F)c1F)c1ccccc1 (stereo not drawn) [6-1652]",
    "pest or weed control at 100 ppm": "≥ 70%"
  },
  {
    "compound": "CN(C(=O)c1cccnc1Cl)c1cccc(C(=O)Nc2c(I)cc(C(F)(C(F)(F)F)C(F)(F)F)cc2C(F)(F)F)c1F [7-1766]",
    "pest or weed control at 100 ppm": "≥ 70%"
  },
  {
    "compound": "CN(C(=O)c1cccnc1Cl)c1cccc(C(=O)Nc2c(I)cc(C(F)(C(F)(F)F)C(F)(F)C(F)(F)F)cc2C(F)(F)F)c1 (stereo not drawn) [7-538]",
    "pest or weed control at 100 ppm": "≥ 70%"
  },
  {
    "compound": "O=C(Nc1cccc(C(=O)Nc2c(I)cc(C(F)(C(F)(F)F)C(F)(F)F)cc2C(F)(F)F)c1)c1ccc(F)cc1 [6-427]",
    "pest or weed control at 100 ppm": "≥ 70%"
  },
  {
    "compound": "CN(C(=O)c1cccc(C#N)c1)c1cccc(C(=O)Nc2c(I)cc(C(F)(C(F)(F)F)C(F)(F)F)cc2C(F)(F)F)c1F [7-1750]",
    "pest or weed control at 100 ppm": "≥ 70%"
  },
  {
    "compound": "CN(C(=O)c1cccc(C#N)c1)c1cccc(C(=O)Nc2c(Br)cc(C(F)(C(F)(F)F)C(F)(F)C(F)(F)F)cc2C(F)(F)F)c1 (stereo not drawn) [7-366]",
    "pest or weed control at 100 ppm": "≥ 70%"
  },
  {
    "compound": "CN(C(=O)c1cccnc1Cl)c1cccc(C(=O)Nc2c(I)cc(C(F)(C(F)(F)F)C(F)(F)F)cc2I)c1F [7-1296]",
    "pest or weed control at 100 ppm": "≥ 70%"
  },
  {
    "compound": "O=C(Nc1cccc(C(=O)Nc2c(I)cc(C(F)(C(F)(F)F)C(F)(F)C(F)(F)F)cc2I)c1F)c1cccnc1Cl (stereo not drawn) [6-1374]",
    "pest or weed control at 100 ppm": "≥ 70%"
  },
  {
    "compound": "O=C(Nc1c(I)cc(C(F)(C(F)(F)F)C(F)(F)C(F)(F)F)cc1C(F)(F)F)c1cccc(NC(=O)c2ccccc2F)c1 (stereo not drawn) [6-503]",
    "pest or weed control at 100 ppm": "≥ 70%"
  },
  {
    "compound": "CN(C(=O)c1c(F)cccc1F)c1cccc(C(=O)Nc2c(Br)cc(C(F)(C(F)(F)F)C(F)(F)F)cc2Br)c1F [7-1126]",
    "pest or weed control at 100 ppm": "≥ 70%"
  }
]
